# study system: Human M4 (Homo sapiens)
# Construct: expressed in transfected cells; host or cells: CHO-K1 (ATCC), stably expressing M4 and Gqi5
# assay protocol: mAChR M4 cell-based functional calcium flux assay (human M4/Gqi5/CHO cells)
# condition parameters: % ACh maximum at 30 μM
Each entry below carries its reported Emin (human M4).
State just the number; it will be interpreted in %.

These solved cases illustrate the format of a correct answer.
* Cc1nn(C)cc1-c1ccc(NCC2CC23CCN(Cc2ccccc2)CC3)nn1 (centres unmarked) | 4.18
* CC(C)(C)CCN1CCC2(CC1)CC2CNc1ccc(N2CCC(F)(F)CC2)nn1 (centres unmarked) | 3
* Fc1ccc(Cl)c(-c2ccc(NCC3CC34CCN(Cc3ncccc3C(F)(F)F)CC4)nn2)c1 (centres unmarked) | 2.74
* Fc1ccc(Cl)c(-c2ccc(NCC3CC34CCN(CC3CCCOC3)CC4)nn2)c1 (centres unmarked) | 3.08

With those in mind, consider the next molecule.
Emin (human M4) lookup needed for Fc1ccc(Cl)c(-c2ccc(NCC3CC34CCN(Cc3ccccc3)CC4)nn2)c1 (centres unmarked) , thanks.
3

====

# study system: Human M4 (Homo sapiens, UniProt P08173)
# assay protocol: mAChR M4 cell-based functional calcium flux assay (human M4/Gqi5/CHO cells)
# condition parameters: decrease of the response to an EC80 concentration of acetylcholine
# Protocol: Human, rat, or mouse M4. cDNA, along with the chimeric G protein Gqi5, were transfected into Chinese hamster ovary (CHO-K1) cells purchased from the American Type Culture Collection using Lipofectamine2000. […] Calcium flux was measured using the Functional Drug Screening System (FDSS) 6000 or 7000 (Hamamatsu Corporation, Tokyo, Japan) as an increase in the fluorescent static ratio. […] Agonist activity was analyzed as a concentration-dependent increase in calcium mobilization upon compound addition. […]
# note: boundary value 70 nM maps to -1; IC50 below it maps to 1

* CC(C)(C)CCN1CCC2(CC1)CC2CNc1ccc(N2CCOCC2)nn1 (stereo not drawn) | 1

Please indicate whether the reported IC50 of Cc1nn(C)cc1-c1ccc(NCC2CC23CCN(CC2CCCCC2)CC3)nn1 (stereo not drawn) is strictly below 70 nM.
1

Does the reported IC50 of Cc1nn(C)cc1-c1ccc(NCC2CC23CCN(CC2CCCOC2)CC3)nn1 (stereo not drawn) stay below 70 nM?
-1

Find out if reported IC50 for Cc1ccsc1-c1ccc(NCC2CC23CCN(CCC(C)(C)C)CC3)nn1 (stereo not drawn) is less than 70 nM
1

# TODO verify IC50 < 70 nM strictly for this compound: Cc1ccncc1-c1ccc(NCC2CC23CCN(CCC(C)(C)C)CC3)nn1 (stereo not drawn)
1

Please state whether IC50 is below 70 nM for Fc1ccc(Cl)c(-c2ccc(NCC3CC34CCN(Cc3ccccc3F)CC4)nn2)c1 (stereo not drawn)
-1

Below 70 nM on IC50? Entry CC(C)(C)CCN1CCC2(CC1)CC2CNc1ccc(-c2ccc(F)cc2Cl)nn1 (stereo not drawn)
1

====

# study system: Human M4 (Homo sapiens, UniProt P08173)
# Construct: expressed in transfected cells; host or cells: CHO-K1 (ATCC), stably expressing M4 and Gqi5
# Sequence (P08173 1-479): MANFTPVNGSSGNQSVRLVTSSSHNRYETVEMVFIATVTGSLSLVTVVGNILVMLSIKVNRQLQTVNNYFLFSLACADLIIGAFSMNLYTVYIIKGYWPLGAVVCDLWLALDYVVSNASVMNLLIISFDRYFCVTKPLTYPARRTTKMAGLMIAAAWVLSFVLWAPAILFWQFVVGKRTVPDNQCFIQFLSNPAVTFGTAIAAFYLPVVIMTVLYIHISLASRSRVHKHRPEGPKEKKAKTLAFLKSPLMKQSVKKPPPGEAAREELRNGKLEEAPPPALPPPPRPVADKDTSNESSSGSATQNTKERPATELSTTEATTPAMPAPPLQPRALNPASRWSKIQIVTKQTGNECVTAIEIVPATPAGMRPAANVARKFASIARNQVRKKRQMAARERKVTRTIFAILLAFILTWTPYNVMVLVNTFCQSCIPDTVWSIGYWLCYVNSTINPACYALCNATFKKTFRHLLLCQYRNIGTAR
# assay protocol: mAChR M4 cell-based functional calcium flux assay (human M4/Gqi5/CHO cells)
# condition parameters: % ACh maximum at 30 μM
Emin (human M4) by entry:
Value expressed in %; do not type the unit.

Here's what some known entries look like.
• Cc1nn(C)cc1-c1ccc(NCC2CC23CCN(CC24CC5CC(CC(C5)C2)C4)CC3)nn1 (stereo not drawn) [Compound 57] = 3.30
• Fc1ccc(Cl)c(-c2ccc(NCC3CC34CCN(CC(c3ccccc3)c3ccccc3)CC4)nn2)c1 (stereo not drawn) [Compound 17] = 3.82
• Cc1nn(C)cc1-c1ccc(NCC2CC23CCN(CC2CCCCC2)CC3)nn1 (stereo not drawn) [Compound 56] = 3.42
• Fc1ccc(Cl)c(-c2ccc(NC[C@@H]3CC34CCN(Cc3ccccc3)CC4)nn2)c1 [Compound 112] = 2

// returns reported Emin (human M4) for input CC(C)(C)CCN1CCC2(CC1)CC2CNc1ccc(-c2ccc3ccccc3c2)nn1 (stereo not drawn) [Compound 47]
2.97

For the compound Fc1ccc(Cl)c(-c2ccc(NCC3CC34CCN(CC35CC6CC(CC(C6)C3)C5)CC4)nn2)c1 (stereo not drawn) [Compound 16] , what Emin (human M4) is on record?
2.44

Consider the compound shown here: CC(=O)Nc1ccc(-c2ccc(NC[C@@H]3CC34CCN(CC3CCCCC3)CC4)nn2)cc1 [Compound 118] What is its recorded Emin (human M4)?
4

Any idea what its Emin (human M4) is? The compound is CC(C)(C)CCN1CCC2(CC1)CC2CNc1ccc(-c2cc(F)ccc2Cl)cn1 (stereo not drawn) [Compound 69]
4.09

Would you kindly share the measured Emin (human M4) for CC(C)(C)CCN1CCC2(CC1)CC2CNc1ccc(N2CCCC2)nn1 (stereo not drawn) [Compound 81] ?
4
